Molecular target: UniProt:P30542
Sequence (whole entry): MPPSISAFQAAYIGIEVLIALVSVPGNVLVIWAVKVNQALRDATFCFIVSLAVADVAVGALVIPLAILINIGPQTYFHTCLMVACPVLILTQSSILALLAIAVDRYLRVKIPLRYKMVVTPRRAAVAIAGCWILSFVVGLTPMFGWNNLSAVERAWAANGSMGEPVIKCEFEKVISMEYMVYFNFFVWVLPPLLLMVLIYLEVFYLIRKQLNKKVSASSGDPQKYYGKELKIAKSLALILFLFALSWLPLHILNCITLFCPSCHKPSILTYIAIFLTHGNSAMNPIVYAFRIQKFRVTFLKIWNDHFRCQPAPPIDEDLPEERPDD
Experiment: Allosteric enhancing activity at human adenosine A1 receptor expressed in CHO cells assessed as inhibition of forskolin-stimulated cAMP accumulation at 10 uM incubated for 10 mins prior to forskolin-stimulation measured after 5 mins by competition protein binding assay
Assay type: functional, cell-based
reportedProperty: inhibition (%)

testSmiles | testedTarget | unitTag | observedResult
Nc1sc(-c2ccccc2)c(CN2CCN(c3ccc(Cl)cc3)CC2)c1C(=O)c1ccc(Cl)cc1 | UniProt:P30542 | % | 68
Cc1sc(N)c(C(=O)c2ccc(Cl)cc2)c1CN1CCN(c2ccc(I)cc2)CC1 | UniProt:P30542 | % | 54
Cc1sc(N)c(C(=O)c2ccc(Cl)cc2)c1CN1CCN(Cc2ccccc2)CC1 | UniProt:P30542 | % | 14
Nc1sc(-c2ccc(Cl)cc2)c(CN2CCN(c3cccc(C(F)(F)F)c3)CC2)c1C(=O)c1ccc(Cl)cc1 | UniProt:P30542 | % | 81
Cc1sc(N)c(C(=O)c2ccc(Cl)cc2)c1CN1CCN(c2ccccc2)CC1 | UniProt:P30542 | % | 59

----------
Target: UniProt:P30542
Experiment: Allosteric enhancing activity at human adenosine A1 receptor expressed in CHO cells assessed as inhibition of forskolin-stimulated cAMP accumulation at 100 nM incubated for 10 mins prior to forskolin-stimulation measured after 5 mins by competition protein binding assay in presence of 2-chloro-N6-cyclopentyladenosine
Type: functional, cell-based
Note to self: class labels come from recorded inhibition, ranges listed here: low (below 50%), mid (50% to below 60%), high (60% or more)

testSmiles | testedTarget | cat
Nc1sc(-c2ccc(Cl)cc2)c(CN2CCN(c3ccc(OC(F)(F)F)cc3)CC2)c1C(=O)c1ccc(Cl)cc1 | UniProt:P30542 | high
Cc1sc(N)c(C(=O)c2ccc(Cl)cc2)c1CN1CCN(c2ccc([N+](=O)[O-])cc2)CC1 | UniProt:P30542 | low
COc1ccc(N2CCN(Cc3c(C)sc(N)c3C(=O)c3ccc(Cl)cc3)CC2)cc1 | UniProt:P30542 | low
Cc1sc(N)c(C(=O)c2ccc(Cl)cc2)c1CN1CCN(c2ccccc2)CC1 | UniProt:P30542 | mid
Cc1ccc(N2CCN(Cc3c(C)sc(N)c3C(=O)c3ccc(Cl)cc3)CC2)cc1 | UniProt:P30542 | mid
CCc1sc(N)c(C(=O)c2ccc(Cl)cc2)c1CN1CCN(c2ccc(F)cc2)CC1 | UniProt:P30542 | mid
Cc1sc(N)c(C(=O)c2ccc(Cl)cc2)c1CN1CCN(c2ccc(C#N)cc2)CC1 | UniProt:P30542 | low
Nc1sc(-c2ccccc2)c(CN2CCN(c3ccc(F)cc3)CC2)c1C(=O)c1ccc(Cl)cc1 | UniProt:P30542 | high
Nc1sc(-c2ccc(Cl)cc2)c(CN2CCN(c3ccc(C(F)(F)F)cc3)CC2)c1C(=O)c1ccc(Cl)cc1 | UniProt:P30542 | high
Nc1sc(-c2ccc(Cl)cc2)c(CN2CCN(c3ccccc3C(F)(F)F)CC2)c1C(=O)c1ccc(Cl)cc1 | UniProt:P30542 | high
Nc1sc(-c2ccc(Cl)cc2)c(CN2CCN(Cc3ccccc3)CC2)c1C(=O)c1ccc(Cl)cc1 | UniProt:P30542 | high
CCc1sc(N)c(C(=O)c2ccc(Cl)cc2)c1CN1CCN(c2ccc(Cl)cc2)CC1 | UniProt:P30542 | mid
Nc1sc(-c2ccc(Cl)cc2)c(CN2CCN(c3ccc(Cl)cc3)CC2)c1C(=O)c1ccc(Cl)cc1 | UniProt:P30542 | high
Cc1sc(N)c(C(=O)c2ccc(Cl)cc2)c1CN1CCN(c2ccc(Br)cc2)CC1 | UniProt:P30542 | low
Cc1sc(N)c(C(=O)c2ccc(Cl)cc2)c1CN1CCN(Cc2ccccc2)CC1 | UniProt:P30542 | low
Nc1sc(-c2ccc(Cl)cc2)c(CN2CCN(c3ccc(F)cc3)CC2)c1C(=O)c1ccc(Cl)cc1 | UniProt:P30542 | high
Nc1sc(Br)c(CN2CCN(c3ccccc3)CC2)c1C(=O)c1ccc(Cl)cc1 | UniProt:P30542 | low

----------
Target: UniProtKB P0DMS8
Sequence (P0DMS8 whole entry): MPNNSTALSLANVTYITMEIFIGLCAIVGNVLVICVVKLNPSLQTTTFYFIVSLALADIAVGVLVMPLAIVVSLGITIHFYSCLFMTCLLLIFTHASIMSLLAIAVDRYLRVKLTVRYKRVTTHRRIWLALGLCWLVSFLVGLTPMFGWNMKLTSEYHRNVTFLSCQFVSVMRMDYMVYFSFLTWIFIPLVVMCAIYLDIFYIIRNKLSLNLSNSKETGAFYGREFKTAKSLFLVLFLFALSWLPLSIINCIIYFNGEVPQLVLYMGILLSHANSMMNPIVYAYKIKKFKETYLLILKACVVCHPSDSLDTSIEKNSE
Test: Displacement of [3H]MRE-3008-F20 from human adenosine A3 receptor expressed in CHO cells at 10 uM after 120 mins by scintillation counting
Type: cell-based

testSmiles | inhibition
Nc1sc(-c2ccccc2)c(CN2CCN(c3ccc(C(F)(F)F)cc3)CC2)c1C(=O)c1ccc(Cl)cc1 | < 12%
Nc1sc(-c2ccccc2)c(CN2CCN(c3ccccc3)CC2)c1C(=O)c1ccc(Cl)cc1 | < 12%
Nc1sc(-c2ccc(Cl)cc2)c(CN2CCN(c3ccc(Cl)c(Cl)c3)CC2)c1C(=O)c1ccc(Cl)cc1 | < 12%
Nc1sc(-c2ccc(Cl)cc2)c(CN2CCN(c3ccc(Cl)c(C(F)(F)F)c3)CC2)c1C(=O)c1ccc(Cl)cc1 | < 12%

----------
Biological target: Adenosine receptor A1 (Homo sapiens)
Assay: Allosteric enhancing activity at human adenosine A1 receptor expressed in CHO cells assessed as inhibition of forskolin-stimulated cAMP accumulation at 10 uM incubated for 10 mins prior to forskolin-stimulation measured after 5 mins by competition protein binding assay
Format: functional, cell-based
Binary call on inhibition: True from 60% upward, False beneath that.

testSmiles | cat
Cc1sc(N)c(C(=O)c2ccc(Cl)cc2)c1CN1CCN(c2ccc(Br)cc2)CC1 | False
Nc1sc(-c2ccc(F)cc2)c(CN2CCN(c3ccc(F)cc3)CC2)c1C(=O)c1ccc(Cl)cc1 | True
Nc1sc(Br)c(CN2CCN(c3ccccc3)CC2)c1C(=O)c1ccc(Cl)cc1 | False
Nc1sc(-c2ccccc2)c(CN2CCN(c3ccc(Cl)c(C(F)(F)F)c3)CC2)c1C(=O)c1ccc(Cl)cc1 | True
Nc1sc(-c2ccc(Cl)cc2)c(CN2CCN(c3ccc(C(F)(F)F)cc3)CC2)c1C(=O)c1ccc(Cl)cc1 | True
Nc1sc(-c2ccccc2)c(CN2CCN(c3ccccc3C(F)(F)F)CC2)c1C(=O)c1ccc(Cl)cc1 | True
Nc1sc(-c2ccc(Cl)cc2)c(CN2CCN(Cc3ccccc3)CC2)c1C(=O)c1ccc(Cl)cc1 | True
Nc1sc(-c2ccc(Cl)cc2)c(CN2CCN(c3ccc(Cl)c(Cl)c3)CC2)c1C(=O)c1ccc(Cl)cc1 | True
Nc1sc(Br)c(CN2CCN(c3ccc(F)cc3)CC2)c1C(=O)c1ccc(Cl)cc1 | False
CCc1sc(N)c(C(=O)c2ccc(Cl)cc2)c1CN1CCN(c2ccc(F)cc2)CC1 | True
Cc1sc(N)c(C(=O)c2ccc(Cl)cc2)c1CN1CCN(c2ccc(Cl)c(C(F)(F)F)c2)CC1 | False
Nc1sc(-c2ccccc2)c(CN2CCN(c3ccc(C(F)(F)F)cc3)CC2)c1C(=O)c1ccc(Cl)cc1 | True
Nc1sc(-c2ccccc2)c(CN2CCN(c3ccc(Cl)c(Cl)c3)CC2)c1C(=O)c1ccc(Cl)cc1 | False
Nc1sc(-c2ccccc2)c(CN2CCN(c3ccc(OC(F)(F)F)cc3)CC2)c1C(=O)c1ccc(Cl)cc1 | True
Cc1sc(N)c(C(=O)c2ccc(Cl)cc2)c1CN1CCN(c2ccc(F)cc2)CC1 | False
Nc1sc(-c2ccc(Cl)cc2)c(CN2CCN(c3ccc(OC(F)(F)F)cc3)CC2)c1C(=O)c1ccc(Cl)cc1 | True
Cc1sc(N)c(C(=O)c2ccc(Cl)cc2)c1CN1CCN(c2ccc(Cl)cc2)CC1 | False
Cc1sc(N)c(C(=O)c2ccc(Cl)cc2)c1CN1CCN(c2ccc(Cl)c(Cl)c2)CC1 | False
Nc1sc(-c2ccc(Cl)cc2)c(CN2CCN(c3ccc(Cl)c(C(F)(F)F)c3)CC2)c1C(=O)c1ccc(Cl)cc1 | True
COc1ccc(N2CCN(Cc3c(C)sc(N)c3C(=O)c3ccc(Cl)cc3)CC2)cc1 | False
Cc1sc(N)c(C(=O)c2ccc(Cl)cc2)c1CN1CCN(c2ccc([N+](=O)[O-])cc2)CC1 | False
Nc1sc(-c2ccccc2)c(CN2CCN(c3cccc(C(F)(F)F)c3)CC2)c1C(=O)c1ccc(Cl)cc1 | True
Nc1sc(-c2ccccc2)c(CN2CCN(c3ccc(F)cc3)CC2)c1C(=O)c1ccc(Cl)cc1 | True
Nc1sc(-c2ccc(Cl)cc2)c(CN2CCN(c3ccc(Cl)cc3)CC2)c1C(=O)c1ccc(Cl)cc1 | True
Cc1sc(N)c(C(=O)c2ccc(Cl)cc2)c1CN1CCN(c2cccc(Cl)c2)CC1 | False
Cc1sc(N)c(C(=O)c2ccc(Cl)cc2)c1CN1CCN(c2ccc(C#N)cc2)CC1 | False
Nc1sc(-c2ccc(Cl)cc2)c(CN2CCN(c3ccc(F)cc3)CC2)c1C(=O)c1ccc(Cl)cc1 | True
Nc1sc(-c2ccc(F)cc2)c(CN2CCN(c3ccccc3)CC2)c1C(=O)c1ccc(Cl)cc1 | True
Cc1sc(N)c(C(=O)c2ccc(Cl)cc2)c1CN1CCN(c2cccc(C(F)(F)F)c2)CC1 | False
CCc1sc(N)c(C(=O)c2ccc(Cl)cc2)c1CN1CCN(c2ccccc2)CC1 | False
Nc1sc(-c2ccccc2)c(CN2CCN(c3ccccc3)CC2)c1C(=O)c1ccc(Cl)cc1 | True
Nc1sc(-c2ccc(Cl)cc2)c(CN2CCN(c3ccccc3C(F)(F)F)CC2)c1C(=O)c1ccc(Cl)cc1 | True
Nc1sc(-c2ccc(Cl)cc2)c(CN2CCN(c3ccccc3)CC2)c1C(=O)c1ccc(Cl)cc1 | True
